study_system: 11β-HSD1 Dehydrogenase (Rattus norvegicus)
assay_method_text: Table 1: inhibition of 11β-HSD1 dehydrogenase
Assay type: biochemical
assay_setup: Table 1, inhibition in words
quantity: 11β-HSD1 Dehydrogenase

| molecule | quantity | recorded_value |
| --- | --- | --- |
| C[C@]12CC[C@@H](O)C[C@H]1CC[C@@H]1[C@H]2C(=O)C[C@]2(C)[C@@H](C(=O)CO)CC[C@@H]12 [3α,5α-TH-11-dehydrocorticosterone, 5α-Pregnan-3α,21-diol-11,20-dione] | 11β-HSD1 Dehydrogenase | No Inhibition |
| C[C@]12CCC(=O)C=C1CC[C@@H]1[C@H]2C(=O)C[C@]2(C)C(=O)CC[C@H]12 (stereo in doubt) [11 -Keto-Androstenedione, 4-Androsten-11,3,17-trione] | 11β-HSD1 Dehydrogenase | No Inhibition |

----------
study_system: 11β-HSD2 Dehydrogenase (Ovis aries)
Sequence (P50168 whole entry): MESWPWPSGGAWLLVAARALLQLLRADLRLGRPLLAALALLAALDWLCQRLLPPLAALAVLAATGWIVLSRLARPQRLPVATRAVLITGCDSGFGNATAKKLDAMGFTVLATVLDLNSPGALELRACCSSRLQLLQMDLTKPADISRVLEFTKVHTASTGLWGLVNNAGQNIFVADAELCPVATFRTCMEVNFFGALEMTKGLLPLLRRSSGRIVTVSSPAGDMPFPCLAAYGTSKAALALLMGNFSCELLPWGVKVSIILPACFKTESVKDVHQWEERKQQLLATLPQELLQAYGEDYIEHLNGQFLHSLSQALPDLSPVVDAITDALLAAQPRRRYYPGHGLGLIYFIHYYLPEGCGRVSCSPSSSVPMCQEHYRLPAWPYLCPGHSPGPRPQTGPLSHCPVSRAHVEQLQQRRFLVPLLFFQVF
assay_method_text: Table 1: inhibition of 11β-HSD2 dehydrogenase
Type: biochemical
assay_setup: Table 1, inhibition in words
quantity: 11β-HSD2 Dehydrogenase

| compound | quantity | recorded_value |
| --- | --- | --- |
| C[C@]12CCC(=O)C[C@H]1CC[C@@H]1[C@H]2[C@@H](O)C[C@]2(C)[C@@H](C(=O)CO)CC[C@@H]12 [5α-DH-Corticosterone, 5α-Pregnan-11β,-21-diol-3,20-dione] | 11β-HSD2 Dehydrogenase | Potent Inhibitor |
| C[C@]12CC[C@@H](O)C[C@H]1CC[C@@H]1[C@H]2C(=O)C[C@]2(C)[C@@H](C(=O)CO)CC[C@@H]12 [3α,5α-TH-11-dehydrocorticosterone, 5α-Pregnan-3α,21-diol-11,20-dione] | 11β-HSD2 Dehydrogenase | Potent Inhibitor |

----------
study_system: 11β-HSD1 Dehydrogenase (Rattus norvegicus)
assay_method_text: 11β-HSD1 dehydrogenase assay in rat Leydig cell homogenates
Type: biochemical
Parameters: Freshly prepared rat Leydig cell homogenates were chosen since they provide a rich and reliable source of both 11β-HSD1 dehydrogenase and reductase; from tissue; host or cells: rat testicular Leydig cells, homogenate
assay_setup: rat Leydig cell homogenates, 600 nM corticosterone, NADP; corticosteroid series; read-out: Leydig Cell 11β-HSD1 Dehydrogenase [S]= 600 nM
quantity: pIC50
For clarity, pIC50 is expressed as the negative log10 of concentration in mol/L.

Per the record, C[C@]12CC[C@@H](O)C[C@H]1CC[C@@H]1[C@H]2[C@@H](O)C[C@]2(C)[C@@H](C(=O)CO)CC[C@@H]12 [3α,5α-TH-Corticosterone, 5α-Pregnan-3α,11β,21-triol-20-one] has pIC50 of 5.89

----------
study_system: 11β-HSD1 Dehydrogenase (Rattus norvegicus, UniProt P16232)
Sequence (P16232 whole entry): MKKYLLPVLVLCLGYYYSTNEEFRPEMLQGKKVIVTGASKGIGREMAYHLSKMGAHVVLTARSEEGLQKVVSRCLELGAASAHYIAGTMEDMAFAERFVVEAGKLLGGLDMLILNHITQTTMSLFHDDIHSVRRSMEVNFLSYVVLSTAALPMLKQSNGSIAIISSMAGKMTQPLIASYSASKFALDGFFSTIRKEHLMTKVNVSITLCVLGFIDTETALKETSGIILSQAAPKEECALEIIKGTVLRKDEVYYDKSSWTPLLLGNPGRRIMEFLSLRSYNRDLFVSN
assay_method_text: 11β-HSD1 dehydrogenase assay in rat Leydig cell homogenates;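 further: tritiated corticosterone conversion by 11β-HSD1 dehydrogenase in Leydig homogenates with 3 mM NADP at pH 8.4, 37 °C for 10 min, products resolved by HPLC, inhibition relative to uninhibited enzyme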
Format: biochemical
Parameters: Freshly prepared rat Leydig cell homogenates were chosen since they provide a rich and reliable source of both 11β-HSD1 dehydrogenase and reductase; from tissue; host or cells: rat testicular Leydig cells, homogenate
assay_setup: rat Leydig cell homogenates, 600 nM corticosterone, NADP; corticosteroid series; read-out: Leydig Cell 11β-HSD1 Dehydrogenase [S]= 600 nM
quantity: pIC50
For clarity, pIC50 is expressed as the negative log10 of concentration in mol/L.

Per the record, C[C@]12CC[C@@H](O)C[C@H]1CC[C@@H]1[C@H]2[C@@H](O)C[C@]2(C=O)[C@@H](C(=O)CO)CC[C@@H]12 has pIC50 of 4.60

Per the record, C[C@]12CC[C@@H](O)C[C@@H]1CC[C@@H]1[C@@H]2[C@@H](O)C[C@@]2(C)[C@H]1CC[C@]2(O)C(=O)CO has pIC50 of 4.85
